Target: T1, Human IL-2Rβ ECD (human, UniProt P14784 27-240, biotinylated (site not stated))
T1 construct: extracellular domain; Biotinylated and held on a streptavidin chip for SPR; also called biotinylated human IL-2Rβ ECD
T1 sequence (looked up): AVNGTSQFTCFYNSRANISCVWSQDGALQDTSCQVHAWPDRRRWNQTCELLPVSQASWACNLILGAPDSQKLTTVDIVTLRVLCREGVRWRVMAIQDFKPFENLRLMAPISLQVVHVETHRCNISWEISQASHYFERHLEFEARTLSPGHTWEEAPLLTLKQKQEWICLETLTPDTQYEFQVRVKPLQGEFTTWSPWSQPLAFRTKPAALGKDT
Assay: SPR, steady-state binding affinity (drawn table)
Items are presented alongside their recorded Kd.
READOUT TYPE: Kd (nM)

BINDER	READOUT TYPE	VALUE OBSERVED
2Rβ-VHH6 (VHH, also called IL-2Rβ-VHH6) VHH: QVQLQESGGGSVQAGGSLRLSCAASSYTISSVCMGWFRQAPGKEREGVAGIAPDGSTGYGDSVKGRFTISKDNAKNTLYLQMNSLKPEDTAMYYCAAASPGRCFLPRTALEPALYYNWGQGTQVTVSS	Kd	25
2Rβ-VHH1 (VHH, also called IL-2Rβ-specific VHH clone 1) VHH: QVQLQESGGGSVQAGGSLRLSCVTSGYTYSSANMAWFRQAPGKEREGVAIITPSGRATTYADSVKGRFTISRDNAANTLYLQMNSLKPEDTAMYYCAADTPPYSGLWYAERTYNYWGQGTQVTVSS	Kd	11
2Rβ-VHH3 (VHH) VHH: QVQLQESGGGSVQAGGSLRLSCTASGFTFDDEDMGWYRQAPGNECELVSSIGSLGRRYYADSVKDRFAISQDNAKNTVYLQMNSLKPEDTAVYYCAATKGGSWLDSILASCQGAFGYWGQGTQVTVSS	Kd	20
2Rβ-VHH4 (VHH) VHH: QVQLQESGGGSVQAGGSLRLSCAASGSTSCSSVMRWYRQAPGKEREFVSSINSDRRTVYADSVKGRFTISQDNAKSTLYLQMNSLKAEDTATYYCQRELYGDSWCQGNYWGQGTQVTVSS	Kd	123
